Reported fold over control (gMFI) by item:
- tested-on: T1, human TNFR2 (human, UniProt P20333 23-461)
- T1 construct: whole, on cells
- T1 sequence (looked up): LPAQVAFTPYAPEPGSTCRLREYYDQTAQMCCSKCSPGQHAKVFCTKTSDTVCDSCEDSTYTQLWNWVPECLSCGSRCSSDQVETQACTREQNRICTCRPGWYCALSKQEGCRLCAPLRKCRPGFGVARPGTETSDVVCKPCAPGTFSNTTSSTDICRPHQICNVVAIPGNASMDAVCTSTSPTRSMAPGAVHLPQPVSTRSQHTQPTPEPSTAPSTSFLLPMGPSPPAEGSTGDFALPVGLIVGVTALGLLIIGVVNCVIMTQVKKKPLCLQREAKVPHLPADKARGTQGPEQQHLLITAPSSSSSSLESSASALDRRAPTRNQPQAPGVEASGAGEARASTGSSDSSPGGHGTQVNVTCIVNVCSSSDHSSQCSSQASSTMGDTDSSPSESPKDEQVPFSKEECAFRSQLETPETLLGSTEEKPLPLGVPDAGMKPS
- protocol-summary: flow cytometry, HEK293 transfectants vs control cells
Answer format: numeric, fold implied, no suffix.

Known results for binders:
36F3 (antibody, IgG4, V domains shown, also called 4891-1) VH: QVQLQQSGPGLVKPSQTLSLTCAISGDSVSSSRTAWNWIRQSPSRGLEWLGRTYYRSKWYHDYSVSVKSRITIDPDTSKNQFSLQLNSVTPEDTAVYYCARGAAPFDYWGQGTLVTVSS VL: EIVLTQSPGTLSLSPGERATLSCRASQSVSSNYLAWYQQKPGQAPRALIYAASNRAAGISDRFSGSGSGTDFTLTISRLEPEDFAVYFCQQYGSSPLTFGGGTKVEIKR: 0.92
39C2 (antibody, IgG4, V domains shown, also called 4887-1) VH: QVQLVQSGTEVKKPGASVKVSCKASGYTFPGYYMHWVRQAPGQGLEWMGWINPDSGGTKYTQKFQGRVTLTRDASVSTAYIDLNRLRSDDTAVYYCARERCRTTNCYLDYWGQGSLVTVSS VL: QSALTQPASVSGSPGQSITISCTGTSSDVGNYNLVSWYQQHPGKAPKLMIYEVNRRPSGVSNRFSGSKSGNTASLTISGLQAEDEAEYYCCSYAGRDTFVVFGGGTKLTVLG: 0.9

Could you now look at the following binder, please?
Annotate the binder 30A12 (antibody, IgG4, V domains shown, also called 4878-1) VH: EVQLLESGGGLVQPGGSLRLSCAASGFTFSRNAMSWVRQAPGKGLEWVSATGGSGISTYYADSVKGRFTISRDNSKNTLYLQMNSLRAEDTAVYYCARGYSNSWWYFDYWGQGTLVTVSS VL: QSALTQPASVSGSPGQSITISCTGTSSDVGNYNLVSWYQQHPGKAPKLMIFEVNQRPSGVSNRFSGSKSGTTASLTISGLQAADEADYFCCSYTTSSTYVIFGGGTKLTVLG with its measured fold over control (gMFI).
0.89
